For each entry below, report its growth value.
Test system: SK-MEL-5 melanoma
assay.name: NCI-60 one-dose screen, 48 h (100 = growth as untreated, 0 = no growth, -100 = all killed)
conditions.used: 10 µM unless noted
Procedure: Growth inhibition of the SK-MEL-5 human tumor cell line is measured as a screen for anti-cancer activity. Cells are grown in 96 well plates and exposed to the test compound for 48 hours. Compounds are tested at a single concentration, which is 10^-5 M for most compounds. The reported endpoint is percent growth (GI% or GIPRCNT), where numbers from 0 - 100% represent growth inhibition, and numbers from -100% - 0 represent cell death. For example, a value of 40 represents 60% growth inhibition. […]
Compounds without any hit were thinned out: in the full panel of roughly 83,000, 20% have a hit.
One number for each entry, in %.

NS(=O)(=O)c1ccc(Cn2c(SCC(=O)N/N=C/c3ccccc3O)nc3ccccc3c2=O)cc1 | 58.1
NCCCCCCNc1cc(-c2cccc(OC(F)(F)F)c2)nc2ccc(N3CCCC3)cc12 | -98.4
CC[C@]12C=CCN3CC[C@@]4(c5cc(NC(=O)CCC(=O)O[C@H]6CC[C@H]7[C@@H]8CCC9=CC(=O)CC[C@@H]9[C@H]8CC[C@]67C)c(OC)cc5N(C)[C@H]4[C@@](O)(C(=O)OC)[C@@H]1OC(C)=O)[C@@H]32 | 43.8

# return growth for each item in the list
1. CC1=C(C(=O)/C=C/c2ccc(N(C)C)cc2)C(c2ccccc2)NC(=S)N1 (configuration not stated)
2. Cc1cc2nc3c4cc(C=O)ccc4n(CCN(C)C)c3nc2cc1C
3. COc1c(Cl)c2c(c(OC)c1OC)-c1ccc(SC)c(=O)cc1[C@@H](NC(=O)OCC(F)(F)F)CC2
4. CC(=O)Nc1cccc(-c2ccc3c(c2)NC(=O)/C3=C\c2ccc[nH]2)c1
5. COc1ccc(C(=O)NNc2nc(Cl)nc(N3CCN(C(c4ccccc4)c4ccccc4)CC3)n2)cc1
6. C=C(C)[C@@H]1CC[C@]2(C(=O)N[C@@H](Cc3ccccc3)C(=O)OC)CC[C@]3(C)[C@H](CC[C@@H]4[C@@]5(C)CCC(=O)C(C)(C)[C@@H]5CC[C@]43C)[C@@H]12
7. Cc1c(C(=O)NCCC(=O)NO)sc2ncnc(Nc3ccc(NC(=O)Nc4cccc(C(F)(F)F)c4)cc3)c12
8. CCN(CC)c1ccc(/C=N/NC(=O)CSc2nc3ccccc3c(=O)n2Cc2ccc(S(N)(=O)=O)cc2)c(O)c1

[99.3, 6.63, -7.65, 61.1, 90.7, 95.2, 97.1, 5.72]

Give measured growth for every item shown.
1. Clc1ccc(-c2ccc(CNCC3CCNCC3)o2)c(-c2ccccc2)c1
2. N#CC1=C(/N=C/c2ccccc2)Oc2c(ccc3ccccc23)C1c1ccc([N+](=O)[O-])cc1 (configuration not stated)
3. COc1ccc(C(=O)c2cc(OC)c(OC)c(OC)c2)cc1O
4. CCOC(=O)CSc1nc2ccccc2c(=O)n1Cc1ccc(S(N)(=O)=O)cc1
5. CCCCCCNC(=O)Oc1ccc(/C(=C(\C)c2ccccc2)c2ccc(OCCCN(C)C)cc2)cc1
6. COc1ccc(OC)c(-c2cc(-c3ccc(Cl)cc3)c3c(N)c(C(=O)c4ccc(Cl)cc4)sc3n2)c1

-99.1
86.9
-59.7
100
92.9
107

====

System: LOX IMVI melanoma
assay.name: NCI-60 one-dose screen, 48 h (100 = growth as untreated, 0 = no growth, -100 = all killed)
conditions.used: 10 µM unless noted
Protocol: Growth inhibition of the LOX IMVI human tumor cell line is measured as a screen for anti-cancer activity. Cells are grown in 96 well plates and exposed to the test compound for 48 hours. Compounds are tested at a single concentration, which is 10^-5 M for most compounds. The reported endpoint is percent growth (GI% or GIPRCNT), where numbers from 0 - 100% represent growth inhibition, and numbers from -100% - 0 represent cell death. For example, a value of 40 represents 60% growth inhibition. […]
About 83,000 compounds went through this panel and 20% of them were active in at least one assay; those are over-represented in the sample as a whole.
Please assign Criterion not met whenever growth is at or above 80%, and Criterion met whenever it is below.

Would you kindly verify if growth of C/C(=N\NC(=O)CSc1nc2ccccc2c(=O)n1Cc1ccc(S(N)(=O)=O)cc1)c1ccc(F)cc1 is strictly less than 80%? Criterion not met

Quick one: CN[C@@H](C)C(=O)N[C@H]1CCS[C@H]2CC(C)(C)[C@@H](C(=O)N[C@H]3c4ccccc4C[C@H]3OCC#CC#CCO[C@@H]3Cc4ccccc4[C@@H]3NC(=O)[C@H]3N4C(=O)[C@@H](NC(=O)[C@H](C)NC)CCS[C@H]4CC3(C)C)N2C1=O Criterion met

Thanks! And O=S(=O)(NCCNc1nccc(-c2c(-c3cccc(F)c3)nc3sccn23)n1)c1ccccc1 ? Criterion met

What do you get for COc1ccc(C(=O)c2cc(C)c(OC)c(C)c2)c(OC)c1N(C(=O)CCl)C(=O)CCl ? Criterion met

# repeat for CCN(CC)CCn1c(=O)c2cc(OC)c(OC)cc2c2ccc3cc4c(cc3c21)OCO4 Criterion met

====

System: UACC-62 melanoma
assay.name: NCI-60 one-dose screen, 48 h (100 = growth as untreated, 0 = no growth, -100 = all killed)
conditions.used: 10 µM unless noted
Compounds without any hit were thinned out: in the full panel of roughly 83,000, 20% have a hit.
readout: growth (%)
Numbers only, in %.

Please review the following examples before continuing.
c1ccc2cc(Cn3c(-c4cccc5ccccc45)[n+](Cc4ccc5ccccc5c4)c4c5ccccc5c5ccccc5c43)ccc2c1 | -74.5
C=C1C(=O)O[C@H]2[C@H]1CC/C(COC(=O)NCc1c[nH]c3ccc(Br)cc13)=C\CC[C@@]1(C)O[C@@H]21 | -63
O=C(Cc1ccccc1)NNc1nc(Cl)nc(N2CCN(C(c3ccccc3)c3ccccc3)CC2)n1 | 91.9
CC1(C)CC(O)CCCCCCOc2c(CN)cccc2NC(=O)c2nc(cnc2N)-c2ccc(cc2)S1(=O)=O (centres undefined) | 41.3
O=Cc1cc2ccccc2nc1Oc1ccc(C(F)(F)F)cc1 | 72.5
COc1cc(-c2n/c(=C\c3c(O)[nH]c4ccc(Cl)cc34)cc3c2=Nc2ccccc2-3)ccc1F | 46.5

State recorded growth for all listed molecules.
1. Clc1ccc(-c2ccc(CNCC3CCNCC3)o2)c(-c2ccccc2)c1
2. COc1cccc2c1c1nc3cc(C)c(C)cc3nc1n2CCN(C)C
3. C/C(=N\Nc1cc(C)nc2ccc(Br)cc12)c1ccc([N+](=O)[O-])cc1

1. -90.8
2. 14.6
3. 89.6

====

Tested on: SF-295 CNS
assay.name: NCI-60 one-dose screen, 48 h
conditions.used: 10 µM unless noted
Protocol: Cells are grown in 96 well plates and exposed to the test compound for 48 hours. Compounds are tested at a single concentration, which is 10^-5 M for most compounds. The reported endpoint is percent growth (GI% or GIPRCNT), where numbers from 0 - 100% represent growth inhibition, and numbers from -100% - 0 represent cell death. For example, a value of 40 represents 60% growth inhibition. A value of 0 means no net growth occurred over the course of the experiment. […]
The panel holds about 83,000 compounds, 20% with a hit somewhere; the sample as a whole holds those more often. Activity calls are given as the source filed them. The calls were made as follows: active = growth percent below 10; inactive = the rest.
Outcomes you can answer with include only these: active, inactive

Cc1cc2nc3c4cccc(O)c4n(CCN(C)C)c3nc2cc1C | inactive

Name the outcome recorded for CCNC(=O)Oc1ccc(/C(=C(\C)c2ccccc2)c2ccc(OCCCN(C)C)cc2)cc1 in the assay. inactive

How about CN[C@@H](C)C(=O)N[C@H]1CCS[C@H]2CC(C)(C)[C@@H](C(=O)N[C@H]3c4ccccc4C[C@H]3OCC#CC#CCO[C@@H]3Cc4ccccc4[C@@H]3NC(=O)[C@H]3N4C(=O)[C@@H](NC(=O)[C@H](C)NC)CCS[C@H]4CC3(C)C)N2C1=O ? inactive

Now this one: CC(C)c1ccc(Nc2ccc3c(OCCCN4CCN(C)CC4)cccc3n2)cc1 inactive

Now the molecule Oc1ccc(C(c2ccc(O)cc2)c2ccc(Br)cn2)cc1 active

Also need COc1ccc(CC(C)=C(c2ccc(OCCN3CCCCCC3)cc2)c2ccc(OCCN3CCCCCC3)cc2)cc1 , thanks. active

What about this molecule? COc1ccc(C(=O)/C=C/c2cc3ccccc3n3nnnc23)cc1 inactive

What would you report for COc1cc2nc(-c3ccc(Cl)cc3)cc(OCCCN3CCOCC3)c2cc1OC ? active

Check O=C(Cc1ccc(/C=C/C(=O)c2nccs2)cc1)Nc1ccccc1 too. inactive

// query: COc1ccc(C(=O)C2C(C#N)C(C#N)C3c4ccccc4C=CN23)cc1 (stereo not given) inactive

====

Test system: TK-10 renal
assay.name: NCI-60 one-dose screen, 48 h
conditions.used: 10 µM unless noted
This is part of a sample that, as a whole, favours compounds with a hit. Of some 83,000 tested, about 20% had one in any assay. Activity calls are given as the source filed them. Rule for the calls: active = growth percent below 10; inactive = the rest.
Your response should consist of one outcome taken from TRUE for active, FALSE for inactive

Sample answers from the record:
N#C/C(=C\c1ccc([N+](=O)[O-])s1)c1nc2cc(Br)ccc2s1 | TRUE
CC(C)(C)CC(C)(C)n1nnnc1C(NC12CC3CC(CC(C3)C1)C2)c1ccccc1 (stereo not drawn) | FALSE
C=C1C(=O)O[C@H]2[C@H]1CC/C(COC(=O)NCC(C)c1ccc(CC(C)C)cc1)=C\CC[C@@]1(C)O[C@@H]21 (stereo partly drawn) | TRUE
COc1cccc(-c2cc(C(=O)Nc3ccc(/C=C/c4ccc(OC5CCN(C)CC5)cc4)cc3)ccc2OC)c1 | TRUE

Fill in: this test's call for Nc1c(C(=O)Nc2ccnc3ccccc23)sc2nc3c(cc12)CN(Cc1ccccc1)CC3 is ___ FALSE
